Where these numbers come from: the NIST ThermoML archive (doi:10.1016/j.fluid.2006.02.023)

# condition parameters: 303.15 K; 101.33 kPa; Liquid
readout name: mass density (kg/m3)
One number for each entry, in kg/m3.

# molecule, value measured
records = [
    ("CC(C)O", 777.3),
    ("CCC(C)O (centres undefined)", 799.2),
    ("CCO", 784.4),
]

The following molecules each have a reported value; give each one's mass density.
1. CO
2. CC(C)CCO
3. CC(C)(C)O

A.
1. 782.4
2. 803.2
3. 775.1

Can you give me mass density for all of these, one by one?
1. CCCO
2. C1COCO1
3. CCCCO

A.
1: 795.8; 2: 1051.8; 3: 802.1

* * *

# condition parameters: 303.15 K; 101.33 kPa; Liquid
Field: speed of sound. Provide a value for each of the compounds that follow.
Numbers only, in m/s.

# compound, measurement units, speed of sound
records = [
    ("O [water]", "m/s", 1505.2),
    ("CCO [ethanol]", "m/s", 1144.3),
    ("CCC(C)O (stereo not given) [butan-2-ol]", "m/s", 1168.9),
    ("CC(C)CCO [3-methylbutan-1-ol]", "m/s", 1197),
    ("C1COCO1 [1,3-dioxolane]", "m/s", 1288.5),
]

// for each compound below, give its speed of sound
1. CCCCO [butan-1-ol]
2. CCCO [propan-1-ol]
3. CC(C)(C)O [2-methylpropan-2-ol]
4. CO [methanol]

A.
1. 1196.6
2. 1182.6
3. 1078.8
4. 1088.5

Q. # lookup: speed of sound of CC(C)O [propan-2-ol]
A. 1126.6

* * *

# condition parameters: 303.15 K; 101.33 kPa; Liquid
Label class 1 for high-side viscosity (at or above 2 mPa·s) and class 0 for low-side viscosity (below it).

Here are 9 compounds together with their reported answers.
# compound, answer label
data = [
    ("CCCO", "class 0"),
    ("CC(C)(C)O", "class 1"),
    ("CCO", "class 0"),
    ("CC(C)CCO", "class 1"),
    ("O", "class 0"),
    ("CCC(C)O (stereo not given)", "class 1"),
    ("C1COCO1", "class 0"),
    ("CC(C)O", "class 0"),
    ("CO", "class 0"),
]

API: the following record is the query input.
Q. Hi, just wondering whether CCCCO shows viscosity of 2 mPa·s or higher.
A. class 1
